Where these numbers come from: paper PMC9482650

Molecular target: DLG1_3, Q12959
Sequence (Q12959 457-571): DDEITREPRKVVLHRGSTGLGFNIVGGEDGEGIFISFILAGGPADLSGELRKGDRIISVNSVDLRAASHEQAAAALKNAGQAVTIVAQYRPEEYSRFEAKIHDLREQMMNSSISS
Assay: holdup assay
Set-up: key: below the threshold = too weak to quantify, mostly under pKd 3.1 to 4
Settings: plain residues with an end cap or a label only (N-terminal biotin on a linker: ado-ado)
RECORDED ENDPOINT: pKd

Look over these answered cases.
* HYPASPDSWV [CTNND2, Q9UQB3] | below the threshold
* VKQYADVEGF [HNRNPK, P61978;P61978-2] | below the threshold
* PKSNSSKEYV [CLDN7, O95471] | below the threshold
* MQILSKPEFI [NPSR1, Q6W5P4] | below the threshold
* THHRKIHTRV [ZNF599, Q96NL3] | 4.15

Note to self: pKd recorded for SAGADSETHC [SLCO1B1, Q9Y6L6] was below the threshold

Note to self: pKd recorded for VCMGDHWFDV [PRKN, O60260] was below the threshold

Note to self: pKd recorded for LLQEEWETVM [PTH1R, Q03431] was below the threshold

Note to self: pKd recorded for SRPHTNETSL [MCC, P23508] was 3.73

Note to self: pKd recorded for KLQNPNQSVV [TYRP1, P17643] was 3.56
